Item-by-item account of IC50
- ASSAYED TARGET: Sodium-dependent dopamine transporter (Rattus norvegicus, UniProt P23977)
- Sequence (P23977 whole entry): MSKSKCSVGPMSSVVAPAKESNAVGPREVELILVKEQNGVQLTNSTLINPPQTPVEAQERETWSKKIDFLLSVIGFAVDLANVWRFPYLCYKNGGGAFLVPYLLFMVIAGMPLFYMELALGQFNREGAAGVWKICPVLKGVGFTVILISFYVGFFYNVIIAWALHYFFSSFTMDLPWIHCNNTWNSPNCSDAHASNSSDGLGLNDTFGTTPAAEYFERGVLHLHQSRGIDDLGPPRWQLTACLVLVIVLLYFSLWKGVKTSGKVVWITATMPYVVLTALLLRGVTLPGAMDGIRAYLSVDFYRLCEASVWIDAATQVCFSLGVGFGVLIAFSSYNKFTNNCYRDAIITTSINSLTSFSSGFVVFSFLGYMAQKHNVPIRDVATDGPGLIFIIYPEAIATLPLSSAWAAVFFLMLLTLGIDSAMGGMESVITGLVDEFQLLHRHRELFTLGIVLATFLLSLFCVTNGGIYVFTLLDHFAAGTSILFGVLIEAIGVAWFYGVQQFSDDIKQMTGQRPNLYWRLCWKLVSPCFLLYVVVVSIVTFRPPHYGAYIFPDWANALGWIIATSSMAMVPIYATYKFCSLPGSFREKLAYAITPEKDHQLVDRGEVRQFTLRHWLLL
- METHOD NOTES: Inhibition of [3H]dopamine uptake in rat caudate putamen.

Value lookup for IC50; key = Cc1ccc(C(O[C@H]2C[C@H]3CC[C@@H](C2)N3C)c2ccccc2)cc1 (stereo partly drawn)
512 nM

Value lookup for IC50; key = CN1[C@@H]2CC[C@H]1C[C@@H](OC(c1ccccc1)c1ccc([N+](=O)[O-])cc1)C2 (stereo partly drawn)
219 nM

Value lookup for IC50; key = CN1[C@@H]2CC[C@H]1C[C@@H](OC(c1ccccc1)c1ccc(Br)cc1)C2 (stereo partly drawn)
29 nM
